# Target desc: T1, human CD28, full-length, expressed on transfected Expi293 cells (human, UniProt P10747 19-220)
# T1 construct: whole, on cells
# Method notes: flow cytometry, 100 nM, Expi293 cells with human CD28
MFI values, listed per item
Assay metric: MFI (MFI)

binder="variant ICOSL IgV-Fc fusion N52D/N57A/Q100A (Fc fusion) DTQEKEVRAMVGSDVELSCACPEGSRFDLNDVYVYWQTSESKTVVTYHIPQDSSLEAVDSRYRNRALMSPAGMLRGDFSLRLFNVTPQDEQKFHCLVLSASLGFQEVLSVEVTLHVAANFSVGSGGGGSEPKSSDKTHTCPPCPAPEAEGAPSVFLFPPKPKDTLMISRTPEVTCVVVDVSHEDPEVKFNWYVDGVEVHNAKTKPREEQYNSTYRVVSVLTVLHQDWLNGKEYKCKVSNKALPAPIEKTISKAKGQPREPQVYTLPPSREEMTKNQVSLTCLVKGFYPSDIAVEWESNGQPENNYKTTPPVLDSDGSFFLYSKLTVDKSRWQQGNVFSCSVMHEALHNHYTQKSLSLSPG" number=138000
binder="variant ICOSL IgV-Fc fusion N52L/N57V (Fc fusion) DTQEKEVRAMVGSDVELSCACPEGSRFDLNDVYVYWQTSESKTVVTYHIPQLSSLEVVDSRYRNRALMSPAGMLRGDFSLRLFNVTPQDEQKFHCLVLSQSLGFQEVLSVEVTLHVAANFSVGSGGGGSEPKSSDKTHTCPPCPAPEAEGAPSVFLFPPKPKDTLMISRTPEVTCVVVDVSHEDPEVKFNWYVDGVEVHNAKTKPREEQYNSTYRVVSVLTVLHQDWLNGKEYKCKVSNKALPAPIEKTISKAKGQPREPQVYTLPPSREEMTKNQVSLTCLVKGFYPSDIAVEWESNGQPENNYKTTPPVLDSDGSFFLYSKLTVDKSRWQQGNVFSCSVMHEALHNHYTQKSLSLSPG" number=54800
binder="variant ICOSL IgV-Fc fusion N52S/N57H/Q100E (Fc fusion) DTQEKEVRAMVGSDVELSCACPEGSRFDLNDVYVYWQTSESKTVVTYHIPQSSSLEHVDSRYRNRALMSPAGMLRGDFSLRLFNVTPQDEQKFHCLVLSESLGFQEVLSVEVTLHVAANFSVGSGGGGSEPKSSDKTHTCPPCPAPEAEGAPSVFLFPPKPKDTLMISRTPEVTCVVVDVSHEDPEVKFNWYVDGVEVHNAKTKPREEQYNSTYRVVSVLTVLHQDWLNGKEYKCKVSNKALPAPIEKTISKAKGQPREPQVYTLPPSREEMTKNQVSLTCLVKGFYPSDIAVEWESNGQPENNYKTTPPVLDSDGSFFLYSKLTVDKSRWQQGNVFSCSVMHEALHNHYTQKSLSLSPG" number=117000
binder="variant ICOSL IgV-Fc fusion N52K/N57Y/Q100R (Fc fusion) DTQEKEVRAMVGSDVELSCACPEGSRFDLNDVYVYWQTSESKTVVTYHIPQKSSLEYVDSRYRNRALMSPAGMLRGDFSLRLFNVTPQDEQKFHCLVLSRSLGFQEVLSVEVTLHVAANFSVGSGGGGSEPKSSDKTHTCPPCPAPEAEGAPSVFLFPPKPKDTLMISRTPEVTCVVVDVSHEDPEVKFNWYVDGVEVHNAKTKPREEQYNSTYRVVSVLTVLHQDWLNGKEYKCKVSNKALPAPIEKTISKAKGQPREPQVYTLPPSREEMTKNQVSLTCLVKGFYPSDIAVEWESNGQPENNYKTTPPVLDSDGSFFLYSKLTVDKSRWQQGNVFSCSVMHEALHNHYTQKSLSLSPG" number=141000
